Value source: paper PMC12733967

Target: LdecOBP33
Experiment: Competitive fluorescence displacement binding assay (1-NPN reporter)
Details: 2 µM LdecOBP33, 2 µM 1-NPN, competitor 0-450 µM, 20 mM Tris pH 7.4, 25 °C; mean ± SE (n = 3)
Outcome Measure: log10(IC50) (log10 of the value in µM)
log10 IC50, µM

{"columns": ["Compound", "log10(IC50)"],
 "data": [
  ["COC(=O)c1ccccc1O [Methyl salicylate]", 2.60]
]}

Look up log10(IC50) for this compound: CN/C(=N\[N+](=O)[O-])NCc1cnc(Cl)s1 [Clothianidin]
1.98

Next compound up: CCC/C=C/C=O [(E)-2-Hexenal]
2.60

Also O=[N+]([O-])NC1=NCCN1Cc1ccc(Cl)nc1 [Imidacloprid] , if possible.
2.42

Also CC/C=C\CCOC(=O)CCC [(Z)-3-Hexenyl-butyrate] ?
1.38

Quick one: C=C[C@](C)(O)CCC=C(C)C [L-Linalool]
1.68

COP(=S)(OC)Oc1nc(Cl)c(Cl)cc1Cl [Chlorpyrifos-methyl] ?
1.80

Ok, now CC(C)=CC1C(C(=O)OCN2C(=O)C3=C(CCCC3)C2=O)C1(C)C (stereo not shown) [Tetramethrin]
1.46

What do you get for CCCCCCCCC=O [Nonanal] ?
0.86

Try this compound too: CCOP(=S)(OCC)Oc1nc(Cl)c(Cl)cc1Cl [Chlorpyrifos]
1.66

###

Biological target: LdecOBP33
Test: Saturation fluorescence binding assay of 1-NPN with recombinant LdecOBP33
Conditions: 2 µM LdecOBP33, 1-NPN 0-25 µM, 20 mM Tris pH 7.4, 25 °C; one-site saturation binding accounting for ligand depletion; read-out: dissociation constant (Kd)
Outcome Measure: Kd (µM)
State the answer as a number, implicitly in µM.

Look up Kd: c1ccc(Nc2cccc3ccccc23)cc1
4.53

###

Biological target: LdecOBP33
Assay: Competitive fluorescence displacement binding assay (1-NPN reporter)
Details: calculated from IC50 with Cheng and Prusoff equation, Ki=IC50/(1+NPN/KdNPN)
// Ki lookup, one value per entry
Give your result in µM as a bare value.

Given O=[N+]([O-])NC1=NCCN1Cc1ccc(Cl)nc1 , state its recorded Ki.
197

###

Test system: LdecOBP33
Assay: Competitive fluorescence displacement binding assay (1-NPN reporter)
Set-up: species or system Leptinotarsa decemlineata
Conditions: 2 µM LdecOBP33, 2 µM 1-NPN, competitor up to 450 µM
Outcome Measure: displacement of the 1-NPN probe

The cases that follow already have their displacement of the 1-NPN probe on record.
{"columns": ["Molecule", "displacement of the 1-NPN probe"],
 "data": [
  ["CC(C)=CC1C(C(=O)OCN2C(=O)C3=C(CCCC3)C2=O)C1(C)C (stereo not shown) [Tetramethrin]", "over 50%"],
  ["C=C[C@](C)(O)CCC=C(C)C [L-Linalool]", "over 50%"],
  ["CCC/C=C/C=O [(E)-2-Hexenal]", "over 50%"],
  ["COC(=O)c1ccccc1O [Methyl salicylate]", "over 50%"],
  ["O=[N+]([O-])NC1=NCCN1Cc1ccc(Cl)nc1 [Imidacloprid]", "over 50%"],
  ["CN/C(=N\\[N+](=O)[O-])NCc1cnc(Cl)s1 [Clothianidin]", "over 50%"]
]}

Now let's try a different one.
Write down the reported displacement of the 1-NPN probe of CCOP(=S)(OCC)Oc1nc(Cl)c(Cl)cc1Cl [Chlorpyrifos] , test system: LdecOBP33.
over 50%

###

Test system: LdecOBP33
Assay: Competitive fluorescence displacement binding assay (1-NPN reporter)
Design: species or system Leptinotarsa decemlineata
Conditions: 2 µM LdecOBP33, 2 µM 1-NPN, competitor up to 450 µM
Description: N-phenyl-1-naphthylamine (1-NPN) was used as a fluorescent reporter to assess the ligand-binding affinity of LdecOBP33 toward various plant volatiles and pesticides; this was chosen due to its reported success in prior studies. […] The relative fluorescence intensity was measured with a 337 nm/10 nm excitation filter and a 413 nm/10 nm emission filter, using a multi-mode Tecan Spark® plate reader. […]
Outcome Measure: displacement of the 1-NPN probe

{"columns": ["Molecule", "Outcome Measure", "Readout Value"],
 "data": [
  ["COP(=S)(OC)Oc1nc(Cl)c(Cl)cc1Cl", "displacement of the 1-NPN probe", "over 50%"],
  ["CC/C=C\\CCOC(=O)CCC [(Z)-3-Hexenyl-butyrate]", "displacement of the 1-NPN probe", "over 50%"],
  ["CCCCCCCCC=O", "displacement of the 1-NPN probe", "over 50%"]
]}

###

Molecular target: LdecOBP33
Experiment: Competitive fluorescence displacement binding assay (1-NPN reporter)
Conditions: 2 µM LdecOBP33, 2 µM 1-NPN, competitor 0-450 µM, 20 mM Tris pH 7.4, 25 °C; mean ± SE (n = 3)
pIC50: −log10 of the molar value.
Each entry below lists one item and its recorded pIC50 value.

{"columns": ["Compound", "Test System", "Readout Value"],
 "data": [
  ["OC[C@H]1OC(O)[C@H](O)[C@@H](O)[C@@H]1O (stereo partly drawn) [D-Glucose]", "LdecOBP33", "< 3.35"]
]}

Which pIC50 value belongs to CNC(=O)Oc1cccc2ccccc12 [Carbaryl] ?
< 3.35

Could you do the same for CC/C=C/CCO [(E)-3-Hexen-1-ol] , please?
< 3.35

###

Target: LdecOBP33
Assay: Competitive fluorescence displacement binding assay (1-NPN reporter)
Conditions: calculated from IC50 with Cheng and Prusoff equation, Ki=IC50/(1+NPN/KdNPN)
Some compounds, each annotated with its measured pKi.
Just so you know, pKi here is -log10 of the concentration in molar units; reply with that number alone.

Here is how some compounds turned out for pKi.
{"columns": ["Compound", "Outcome Measure", "Readout Value"],
 "data": [
  ["CC(C)=CC1C(C(=O)OCN2C(=O)C3=C(CCCC3)C2=O)C1(C)C (centres unmarked)", "pKi", 4.66],
  ["CC/C=C\\CCOC(=O)CCC [(Z)-3-Hexenyl-butyrate]", "pKi", 4.74],
  ["COP(=S)(OC)Oc1nc(Cl)c(Cl)cc1Cl", "pKi", 4.32],
  ["CCC/C=C/C=O [(E)-2-Hexenal]", "pKi", 3.52],
  ["C=C[C@](C)(O)CCC=C(C)C", "pKi", 4.44],
  ["CN/C(=N\\[N+](=O)[O-])NCc1cnc(Cl)s1", "pKi", 4.15],
  ["COC(=O)c1ccccc1O [Methyl salicylate]", "pKi", 3.53]
]}

Could you tell me which pKi is on file for CCOP(=S)(OCC)Oc1nc(Cl)c(Cl)cc1Cl ?
4.46

###

Here the recorded Ki is given for each entry.
Biological target: LdecOBP33
Assay: Competitive fluorescence displacement binding assay (1-NPN reporter)
Settings: calculated from IC50 with Cheng and Prusoff equation, Ki=IC50/(1+NPN/KdNPN)

Consider the compound shown here: CNC(=O)Oc1cccc2ccccc12 What is its recorded Ki?
> 338 µM

What about CC/C=C/CCO [(E)-3-Hexen-1-ol] ?
> 338 µM

// next record OC[C@H]1OC(O)[C@H](O)[C@@H](O)[C@@H]1O (stereo partly drawn)
> 338 µM
